tested on: MS2 coat protein; experiment: apparent KD of MS2 coat protein; designed switch direction (-1 OFF switch, 1 ON switch): -1; higher = weaker reporter binding; details: input ligand: none
propertyMeasured: apparent KD of MS2 coat protein (nM)
Give bare numbers, in nM.

Could you tell me apparent KD of MS2 coat protein for each of these sequences? They are listed below.
1. UUCGUGCAGCUUUGCUGUACGCGUACAUGAGGAUCACCCAUGUAGGAUAUGGUAGGCAAAGCUUACUAGAAGGAUAGAGUGAUC [Mat - Exclusion NG 3 - Mod of JL - D74] (Eterna round: R96, puzzle: Exclusion NG 3)
2. GCUGCACAUGUAGGAUAUCUGCACGAUUAGUGCAGAGAAGGACAUGAGGAUCACCCAUGUAGAUCAGCAGCAAUUAAUUUAAUU [ENG1/6-A1] (Eterna round: R96, puzzle: Exclusion NG 1)

Result string:
122
400

###

What apparent KD of MS2 coat protein was measured for each of the following?
system: MS2 coat protein; assay: apparent KD of MS2 coat protein; designed switch direction (-1 OFF switch, 1 ON switch): -1; higher = weaker reporter binding; settings: Eterna round: R95; input ligand: microRNA oligo, concentration not stated
Answers are plain numbers, in nM.

Answered cases to consult:
{"columns": ["residueString", "apparent KD of MS2 coat protein / nM"],
 "data": [
  ["AGGUAACAUGAGGAUCACCCAUGUCAGGAUAUCAUGAAGAUUAGAUUAGAGGAGAGGUUGAGAAGGGACUAUAU [Excluse me! 16 - Jieux - Exclusion 1] (puzzle: Exclusion 1)", 45.4],
  ["AAAUAAUAGAUAAAAUAAAACAUGAGGAUCACCCAUGUAGGCAGAUGAGGGUGAAACAAGCUUUUUGCUCGUCUUAU (puzzle: Sensor v3, turn-off variant 1)", 477]
]}

Proceeding to the next sequence to report its apparent KD of MS2 coat protein.
Query string: Returns the measured apparent KD of MS2 coat protein for the input sequence. Input: UAUUACAAGCGAGAUCCUAACAUGAGGAUCACCCAUGUGCUCGUCUCAUUUUGGACUAUCACGAAAGUGAUAGUCCU [Level Boss var2-02] (puzzle: Sensor v3, turn-off variant 1)
Result string: 237

###

test system: MS2 coat protein; test: apparent KD of MS2 coat protein; designed switch direction (-1 OFF switch, 1 ON switch): 1; higher = weaker reporter binding; settings: Eterna round: R95; input ligand: FMN 200 uM
propertyMeasured: apparent KD of MS2 coat protein (µM)
Numbers only, in µM.

Answered cases to consult:
{"columns": ["residueString", "propertyMeasured", "quantityUnit", "reported"],
 "data": [
  ["CGUCCGGCCUGAGCUGGACGGAAGCUUGUACAUGAGGAUCACCCAUGUUCAUGUGCAGGCUUUUUGCUCGUCUUGUG [salish99_mir208a_modof_jandersonlee] (puzzle: Sensor for hsa-mir-208a)", "apparent KD of MS2 coat protein", "µM", 0.0198],
  ["GGUCCAGCCUGAGCUGGACAAAAGCAUGUACAUGAGGAUCACCCAUGUUCAUGUACAAGCUUUUUGCUCGUCUUACG [salish99_208a_r3_086] (puzzle: Sensor for hsa-mir-208a)", "apparent KD of MS2 coat protein", "µM", 0.571],
  ["CGUUCAUACUCAGGACGGAGAGUAGAGGAACAUGAGGAUCACCCAUGUAUGAGCUUUUUGCUCGUCAUUAACAGUAG [JR_SHM208a_Sub012] (puzzle: Sensor for hsa-mir-208a)", "apparent KD of MS2 coat protein", "µM", 0.0618]
]}

Could you tell me apparent KD of MS2 coat protein for each of these sequences? They are listed below.
1. UCAAGCGUUUGGCUCGUCUUAUGUUUUGUACAUGAGGAUCACCCAUGUUUUGUACGAUCCAGUUAGAUGGUAUUUUG [JR_SHM208A_Sub038] (puzzle: Sensor for hsa-mir-208a)
2. AUAAAACAUGAGGAUCACCCAUGUCAACAAAGUCGAGGAUAUGGGCAAAUAAAAUAAGUACCAGAAGGCGAAUAAU [salish99_ss1_r3_017] (puzzle: Same State 1)

Result string:
1: 0.0398; 2: 0.0341

###

system: MS2 coat protein; experiment: apparent KD of MS2 coat protein; designed switch direction (-1 OFF switch, 1 ON switch): 1; higher = weaker reporter binding; conditions: Eterna round: R98; input ligand: none
// label = 1 (yes) if apparent KD of MS2 coat protein is not less than 200 nM, otherwise 0 (no)

Sample answers from the record:
{"columns": ["residueString", "labelValue"],
 "data": [
  ["UUAUGAGCGAUAGGAUAUACUGAGAUUGAAUGGGUAGAAGGAUCAAUCGUGUGGAAGACAUGAGGAUCACCCAUGUUACGGGCC [SameState #75 NG1]", "1 (yes)"],
  ["GCAGAAGGUGCGGAGGAUCACCCUGUAAGGAUAUGCAUUAGCAAGGAUAUACAGAGGAUCACCCUGUAGAAGGUGCACUUCUGC [pwkr2 ssNG3 DX.9]", "1 (yes)"],
  ["CACGUCCUCACAGGAUAUGCUGGACUUUGUCCAGCAGAAGGGUGAACAUGAGGAUCACCCAUGUAAAGGACGUGUAUAUUUAAU [Denovo 23]", "1 (yes)"]
]}

Query string: Threshold query (apparent KD of MS2 coat protein >= 200 nM) on GCGUCCCGCAGAGGAUAUGUUGUUCGGCCUACAUGAGGAUCACCCAUGUCAAAGGGCUGAUCCCAACAGAAGGCUGAAGGAUAC [Qumarera]
Result string: 0 (no)

Query string: Threshold query (apparent KD of MS2 coat protein >= 200 nM) on GAGCUGCUCUGAGGAUAUGGGUUUAUAAGGACGGGCACGCCCGACAUGAGGAUCACCCAUGUCUACCAGAAGGCAGAAAAGUUC [Mamain]
Result string: 0 (no)

Query string: Threshold query (apparent KD of MS2 coat protein >= 200 nM) on UUGGUUCUCGUAGGAUAUGUAGGAUAUGCCUACAUGAGGAUCACCCAUGUUCGCAUGGCAGAAGGACAGAAGGACGAUCACCAU [pwkr ssNG2 2FMN +1F5.17]
Result string: 1 (yes)

Query string: Threshold query (apparent KD of MS2 coat protein >= 200 nM) on GCUUGCGACGCAGGAUAUGGGUGCCUGCACACGAGGAUCACCCGUGUAGAGGAACGGAUUACGUCUCAGAAGGGCGUGGCAGGC [United States 4 - Jieux - Same State NG 2]
Result string: 0 (no)

Query string: Threshold query (apparent KD of MS2 coat protein >= 200 nM) on CCUGACACUUGAGGAUAUGCUCAGGAAUACUGAGCAGAAGGCAGGAAAACCUGAGGAUCACCCAGGUAAGUCAGGAAUAAUAAA [Same State NG1 - A3C, U17G Submission 3A]
Result string: 0 (no)

Query string: Threshold query (apparent KD of MS2 coat protein >= 200 nM) on CAUGUCCUCACAGGAUAUGCUGGACUUUGUCCAGCAGAAGGGUGAACAUGAGGAUCACCCAUGUAAUGGACAUGUAUAUUUAAG [Mat - Same State NG 1 - Eli mod - D98]
Result string: 1 (yes)

Query string: Threshold query (apparent KD of MS2 coat protein >= 200 nM) on ACAUAAUGGUGAGGAUAUGCACAGGAUCACCGUGUAGAAGGCAUCAGGUAGAAGGUGCAGAGGAUCACCCUGUAAGGAUAUAUC [pwkr2 ssNG1 DX.19]
Result string: 1 (yes)

Query string: Threshold query (apparent KD of MS2 coat protein >= 200 nM) on GCUCUCACUUGAGGAUAUCGAGUGGAUAACACUCGAGAAGGCAGGGAAACCUGAGGAUCACCCAGGUAACUGGAAAGAGAGCAA [Same State NG1 - A3C, U17G Submission 5D]
Result string: 0 (no)

Query string: Threshold query (apparent KD of MS2 coat protein >= 200 nM) on CUGCAAUUCUUAGGAUAUGCUCAGGAAUACUGAGCAGAAGGAAGAUAUACCUGAGGAUCACCCAGGUUAAACUGGAGCAGAAUA [Same State NG1 - A3C, U17G Submission 8A]
Result string: 0 (no)

Query string: Threshold query (apparent KD of MS2 coat protein >= 200 nM) on GGAGCACACAUUAACAUGAGGAUCACCCAUGUCAAAAGACAUGAGGAUAUGGAUCCGAAAAGGAUCCAGAAGGCAUGGUGCUCC [EliMod 8 - Jieux - Same State NG 3]
Result string: 1 (yes)

###

system: MS2 coat protein; test: apparent KD of MS2 coat protein; designed switch direction (-1 OFF switch, 1 ON switch): 1; higher = weaker reporter binding; conditions: input ligand: none
propertyMeasured: apparent KD of MS2 coat protein (nM)
Numbers only, in nM.

{"columns": ["residueString", "apparent KD of MS2 coat protein [nM]"],
 "data": [
  ["GUUACAUGAGGAUCACCCAUGUAUGUGUGGGAGUAAGUGUCUUAGGAUAUCUAGUAUUUAAUUUGAGAGAAGGAAGAUUGUUGU [JMF's solution 70] (Eterna round: R96, puzzle: Same State NG 3)", 147],
  ["UGAAGAUCCAUAGGAUAUCCGACACAUGAGGAUCACCCAUGUCAACCAAACGCAGCUUCGGCCGUGGAGAAGGAUGGAGCUGUG [Eternabot solution 3] (Eterna round: R96, puzzle: Same State NG 2)", 76.4],
  ["UGGCUCAGACGAGGAUAUAUGUGAUCACAUGAGGAUCACCCAUGUCUCGAGCUUCGGCUCGAGACAUAGAAGGUGUCUGAGCCU [SSNG2/3-C3] (Eterna round: R96, puzzle: Same State NG 2)", 6.64],
  ["GGUGGGUUGCUGCCGGCACAUGAGGAUCACCCAUGUUUUGGGAAGGAUAUGGUACCUGUUUGGUGCCAGAAGGUCCCGUUGGUG [salish99_SSNG3_r04_711] (Eterna round: R96, puzzle: Same State NG 3)", 522]
]}

Proceeding to the next sequence to report its apparent KD of MS2 coat protein.
Query string: Returns the measured apparent KD of MS2 coat protein for the input sequence. Input: UAGUGCAUUAGAGGAUAUUCUUACGACACGAGUAAGACAUGAGGAUCACCCAUGUCGUGGCAUGGGAAGAAGGCUGAUGUGCUA [Omei SS(NG)2 Bv7] (Eterna round: R96, puzzle: Same State NG 2)
Result string: 34.7

# credit: the supplement of paper PMC9170038
